Sourced from patent US8013006B2

Tested on: HCV replicon
Assay info: microbe, parasite or virus in culture
Type: cell-based
Test parameters: Replicon IC50 values are determined by firefly luciferase signal; bicistronic replicon, 2 days; read-out: Replicon IC5Os
pIC50: −log10 of the molar value.
Experimental readout: pIC50

Request: // lookup pIC50 | system=HCV replicon | key= `CCOC(=O)Nc1cccc(-c2c(C#N)c3cc(OC)ccc3n2CC)c1`
Response: < 5.70

Request: Note, next up: `COc1ccc(-n2cc(-c3nc(-c4ccc(Cl)c(Cl)c4)cs3)c3ccc(C(N)=O)cc32)cc1`
Response: < 5.70

Request: Would you kindly repeat that for `CCn1c(-c2ccc(N)cc2)c(C#N)c2cc(OC)ccc21` ?
Response: < 5.70

Request: Same read-out for `COC(=O)c1ccc2c(-c3nc(-c4ccncc4)cs3)cn(-c3ccc(OC)cc3)c2c1` ?
Response: < 5.70

Request: Repeat for the following compound: `CCn1c(-c2ccc(NC(C)=O)cc2)c(C#N)c2ccccc21`
Response: < 5.70

Request: Try the compound `CCCn1c(-c2ccc(NS(=O)(=O)CC)cc2)cc2ccc(OC)cc21`
Response: < 5.70

Request: Proceed to `CCn1c(C#Cc2ccc(Cl)cc2)c(C#N)c2ccc(O)cc21`
Response: 5.70 to 6.30

Request: Please answer likewise for `CCOc1ccc2c(C#N)c(-c3ccc(NS(=O)(=O)CC)cc3)n(C)c2c1`
Response: 5.70 to 6.30

Request: Next compound: `COc1ccc2c(C#N)c(C#Cc3ccc(N(C)C)cc3)[nH]c2c1`
Response: 5.70 to 6.30

Request: Please give the result for `CCn1c(-c2cccc(NC(=O)OCCF)c2)c(C#N)c2ccc(OC(C)C)cc21` too.
Response: 5.70 to 6.30

Request: Next record, please: `CCn1c(-c2cccc(NS(=O)(=O)N3CCCC3)c2)c(C#N)c2ccc(OC)cc21`
Response: < 5.70

Request: Try `CCNC(=O)c1ccc(-c2c(C#N)c3cc(OC)ccc3n2CC)cc1` next.
Response: 5.70 to 6.30

Request: Now the compound `CCn1c(-c2ccc(NC(=O)OCc3ccccc3)cc2)c(C#N)c2ccc(OC)cc21`
Response: < 5.70

Request: What would you report for `CCn1cc(C#N)c2ccc(Cl)cc21` ?
Response: 5.70 to 6.30

Request: What would you report for `CCn1cc(C(=O)c2ccccc2)c2ccc(OC)cc21` ?
Response: < 5.70

Request: Next record, please: `COc1ccc2c(C#N)c(C#Cc3cccc4ccccc34)[nH]c2c1`
Response: < 5.70

Request: Same question, `CCn1c(C#Cc2cccc3ccccc23)c(C#N)c2ccc(OC)cc21` this time
Response: 5.70 to 6.30

Request: Try the compound `CCn1c(C#Cc2ccccc2N)c(C#N)c2ccc(OC)cc21`
Response: 5.70 to 6.30

====

System: wild-type poliovirus
Type: cell-based
Test parameters: 1 μM compound; Hela cells, MOI 0.1, one day
Experimental readout: WT-PV CPE (1 μM)*
Give the figure only, with no unit attached.

Request: Recorded WT-PV CPE (1 μM)* for `CCn1cc(C#N)c2ccc(OC(C)C)cc21` , please?
Response: 2

Request: Thanks! And `CCn1c(-c2ccc(OC)cc2)c(C#N)c2ccc(OC)cc21` ?
Response: 1

Request: Next entry: `COc1ccc(-n2cc(C#N)c3ccc(OC)cc32)cc1`
Response: 1

Request: Input `COc1ccc2c(C#N)c(C)n(-c3ccc4c(c3)OCO4)c2c1`
Response: 2
